MEASUREMENT_CONTEXT: 298.15 K; 101.33 kPa; Liquid; Vibrating tube method
METRIC: mass density (kg/m3)

>  <CHEMICAL_STRUCTURE>
CCO

>  <UNITS_OF_MEASURE>
kg/m3

>  <mass density>
785.02

$$$$
>  <CHEMICAL_STRUCTURE>
CC(C)O

>  <UNITS_OF_MEASURE>
kg/m3

>  <mass density>
780.8

$$$$
>  <CHEMICAL_STRUCTURE>
CCCCCCCCO

>  <UNITS_OF_MEASURE>
kg/m3

>  <mass density>
821.6

$$$$
>  <CHEMICAL_STRUCTURE>
CO

>  <UNITS_OF_MEASURE>
kg/m3

>  <mass density>
786.59

$$$$
